# Tested on: JEG-3
# protocol: Primary qHTS to identify gynecologic anti-cancer compounds using libraries of approved drugs and bioactive compounds (AID 1345084); note: nearly all actives have a fitted effect of over 55% in size; for activity change, negative = cytotoxicity: % is set by controls: 0 for no effect and ±100 for the full control effect
# assay-setup: Gynecologic cancer cell panel viability, ATPlite luminescence, 48 h; series mostly up to 57.5 µM
Results filed as inconclusive are left out. Activity calls are given as the source filed them. Calls come from the whole dose curve; as a rule, active = well fitted cell-killing curve with a large enough effect; inconclusive = small, poorly fitted or top-dose-only effect, or effect the other way; inactive = flat fitted curve, though single readings scatter.
measured-endpoint: activity change, negative = cytotoxicity

Cc1ccnc(NC(=O)C(C)c2cccc(C(=O)c3ccccc3)c2)c1 (stereo not drawn) = inactive
CO[C@H]1C[C@@H]2CC[C@@H](C)[C@@](O)(O2)C(=O)C(=O)N2CCCC[C@H]2C(=O)O[C@H]([C@@H](C)C[C@@H]2CC[C@@H](O)[C@H](OC)C2)CC(=O)[C@H](C)/C=C(\C)[C@@H](O)[C@@H](OC)C(=O)[C@H](C)C[C@H](C)/C=C/C=C/C=C/1C = inactive
Cc1nc(NC(=O)N2CCCC2C(N)=O)sc1-c1ccnc(C(C)(C)C(F)(F)F)c1 (stereo not drawn) = inactive

----------
# Tested on: PA-1
# protocol: Primary qHTS to identify gynecologic anti-cancer compounds using libraries of approved drugs and bioactive compounds (AID 1345084); note: nearly all actives have a fitted effect of over 55% in size
# assay-setup: Gynecologic cancer cell panel viability, ATPlite luminescence, 48 h; series mostly up to 57.5 µM
Results filed as inconclusive are left out. Activity calls are given as the source filed them. Calls come from the whole dose curve; as a rule, active = well fitted cell-killing curve with a large enough effect; inconclusive = small, poorly fitted or top-dose-only effect, or effect the other way; inactive = flat fitted curve, though single readings scatter.
Your reply should match one of these outcome classes. class 1 (active), class 0 (inactive)

These recorded examples may help you get a feel for the data.
CS(=O)(=O)Nc1ccc2oc3c(OC(F)F)ccc(C(=O)Nc4c(Cl)cncc4Cl)c3c2c1 = class 0
CN(C)Cc1ccc(-c2cnn3c(-c4cccc(NC(=O)c5cccc(C(F)(F)F)c5)c4)ccnc23)cc1 = class 0

Here is the next item to consider.
Assay result, entry "CC[C@@H]1C[C@]1(NC(=O)[C@@H]1C[C@@H]2CN1C(=O)[C@H](C(C)(C)C)NC(=O)OCC(C)(C)CCCCc1cccc3c1CN(C3)C(=O)O2)C(=O)NS(=O)(=O)C1CC1" — outcome?
class 0

----------
# Test system: Hek293T
# protocol: Primary qHTS to identify gynecologic anti-cancer compounds using libraries of approved drugs and bioactive compounds (AID 1345084); note: nearly all actives have a fitted effect of over 55% in size
# assay-setup: Gynecologic cancer cell panel viability, ATPlite luminescence, 48 h, control line for the selectivity index; series mostly up to 57.5 µM
Results filed as inconclusive are left out. Activity calls are given as the source filed them. Calls come from the whole dose curve; as a rule, active = well fitted cell-killing curve with a large enough effect; inconclusive = small, poorly fitted or top-dose-only effect, or effect the other way; inactive = flat fitted curve, though single readings scatter.
Permitted responses: active, inactive

For orientation, consider the following solved cases.
CC(=O)OC(C)(C)/C=C/C(=O)C(C)(O)C1C(O)CC2(C)C3CC=C(C(C)(C)C(=O)O)C(CC(=O)O)C3(C)C(=O)CC12C (stereo not given) = inactive
COc1cc2c(cc1O)C1(Cc3ccc4c(c3C1O)OCO4)[N+](C)([O-])CC2 (stereo not given) = inactive
O=C1C[C@]23C=CCN4CCC5c6cc7c(cc6N1[C@@]5(CC2)C43)OCO7 (stereo not given in full) = inactive
C=C1C(=O)OC2/C=C(\COC(C)=O)CC/C=C(\C=O)CC(OC(=O)CC(C)C)C12 (stereo not given) = active
COCCN(C(=O)c1cc(OC)c(OC)c(OC)c1)c1nc(-c2ccccc2)cs1 = inactive

Look up the recorded call for C=CC(C)(O)CC[C@@H]1[C@@]2(C)CCCC(C)(C)C2CC[C@@]1(C)O (stereo not given in full) in this test.
inactive

Would you mind telling me which call this test gave "CCOC(=O)C1(CCOc2ccccc2)CCN(Cc2ccc(O)c(Cl)c2)CC1" ?
inactive

What outcome does the record of this test show for CCCn1ncc(CN2CCCC(C(=O)c3cccc(OC(C)C)c3)C2)c1C (stereo not given) ?
inactive

// param item: COc1c(C(C)C)c(O)c(O)c2c1C(OC)[C@H]1OC(=O)[C@@]23CCCC(C)(C)[C@H]13 (stereo not given in full) ; yields the recorded call
inactive

Recorded call for "O=C(NCCN1CCN(c2cccc3c2OCCO3)CC1)c1ccc(F)cc1" ?
inactive

Tell me the assay call for "C[C@@H](O[C@H]1OCCN(Cc2nn(P(=O)(O)O)c(=O)[nH]2)[C@H]1c1ccc(F)cc1)c1cc(C(F)(F)F)cc(C(F)(F)F)c1" please.
inactive

What call does the record list for CC(O)(C(=O)O)C1CCC2(C)C1CCC1(C)C2CCC2C3(C)CCC(O)C(C)(COC4OC(CO)C(O)C(O)C4O)C3CCC21C (stereo not given) ?
active

For "C=C(C(=O)O)[C@@H]1CC=C(CCC(C)=O)[C@@H](C)CC1" , what call appears in the results of this test?
inactive

Could you kindly confirm the outcome this assay logged for "COc1cc(C(C)=O)c(OC)c2c1OC(C)(C)C=C2" ?
inactive

Record lookup: outcome of this test for "CC(C)[C@@H](c1ccc(C(F)(F)F)cc1CN(Cc1cc(C(F)(F)F)cc(C(F)(F)F)c1)c1nnn(C)n1)N1CCC(C(=O)O)CC1" ?
inactive

How was C/C=C(/C)C(=O)OC1C=C2C3C(C)C(C)C(OC(=O)C(C)C(C)O)CC3(C)CCC2(C)C2(C)CC(OC(C)=O)C3C(C)(C)C(O)C(=O)CC3(C)C12 (stereo not given) classified in this test?
inactive

Per the records of this test, what outcome belongs to C=C(NC(=O)C(=C)NC(=O)c1csc(C2=NC3c4csc(n4)C4NC(=O)c5csc(n5)C(C(C)(O)C(C)O)NC(=O)C5CSC(=N5)/C(=C/C)NC(=O)C(C(C)O)NC(=O)c5csc(n5)C3(CC2)NC(=O)C(C)NC(=O)C(=C)NC(=O)C(C)NC(=O)C(C(C)CC)NC2C=Cc3c(C(C)O)cc(nc3C2O)C(=O)OC4C)n1)C(N)=O (stereo not given) ?
active

Which result was noted for this compound in the test: COc1ccccc1OCCN1CC(COc2cccc3[nH]c4ccccc4c23)OCC1=O (stereo not given)
inactive

// outcome(item) with item = "O=C(NCC1(c2nc(-c3ccccc3)cs2)CCOCC1)c1cccc(-c2noc(C(F)(F)F)n2)c1"
inactive

Hey, what did the test say about C=C1C(=O)OC2C1CCC1(C)C(O)CCC(=C)C21 (stereo not given) ?
inactive

Please indicate how the test categorized "Cc1c(C2=CCN(C(=O)N(C)C(C)C)CC2)nnn1-c1cccnc1F" .
inactive

Hi, do you know how "O=c1[nH]c2ccccc2n1CCN1CCN(c2cccc(C(F)(F)F)c2)CC1" came out in this test?
inactive

----------
# System: CRL-7250
# protocol: Cytotoxic Profiling of Annotated Libraries Using Quantitative High-Throughput Screening (AID 1296008); note: nearly all actives have a fitted effect of over 60% in size; note: potency is the fitted concentration of half-maximal effect
# assay-setup: Five cell lines viability, CellTiter-Glo ATP luminescence, 48-72 h
Results filed as inconclusive are left out. Calls of active or inactive are those of the source. The call rests on the fitted dose curve; in most records, active means well fitted inhibition curve with a large enough effect; inconclusive means small, poorly fitted or top-dose-only effect; inactive means flat fitted curve, though single readings scatter.
measured-endpoint: Potency

Please review the following examples before continuing.
Cc1cc(-c2nc(-c3ccc(OC(F)(F)F)cc3)no2)nn1Cc1ccnc(N2CCN(C3CC3)CC2)c1 = 25.9 nM (active)
C=CC(=O)Nc1ccc2ncnc(Nc3cccc(Br)c3)c2c1 = 5800 nM (active)
O=C(Cc1cccc(OC(F)(F)F)c1)Nc1ccc(CCCCc2nnc(NC(=O)Cc3ccccn3)s2)nn1 = 16.6 nM (active)
Cc1ccnn1-c1ccc(C(=O)N2CCN(S(=O)(=O)c3ccc(Cl)c(C(F)(F)F)c3)CC2)cc1 = inactive
C=CC(=O)Nc1cccc(Nc2nc(Nc3ccc(NC4CN(CCF)C4)cc3OC)ncc2C(F)(F)F)c1 = 7310 nM (active)

Give Potency for each listed item.
1. COc1ccc(-c2cc3onc(-c4ccncc4)c3c(=O)n2C)cc1
2. CC(C)S(=O)(=O)NC[C@H](C)c1ccc(-c2ccc(CCNS(C)(=O)=O)cc2)cc1

1: 651 nM (active); 2: 4610 nM (active)

Hello, I would appreciate it if you could give Potency for each entry below.
1. O=C(Nc1ccc(-c2ccc(Cl)c(Cl)c2)cc1)C1=C(O)c2ccccc2S(=O)(=O)N1
2. CC(O)(C(=O)C1CC1(CO)COC1OC(CO)C(O)C(O)C1O)C1C(O)CC2C3CC=C4CC(O)CC(O)C4(C)C3C(O)CC21C (centres undefined)

1: inactive; 2: 432 nM (active)

----------
# Tested on: NIH3T3
# protocol: Cytotoxic Profiling of Annotated Libraries Using Quantitative High-Throughput Screening (AID 1296008); note: nearly all actives have a fitted effect of over 60% in size; for max response: % is set by controls: 0 for no effect and ±100 for the full control effect
# assay-setup: Five cell lines viability, CellTiter-Glo ATP luminescence, 48-72 h; hits give low values
Results filed as inconclusive are left out.
So basically, if max response comes in under -10% it's class 1, and if it's -10% or more it's class 0.

Please review the following examples before continuing.
CNc1nc(NCc2ccc(NS(C)(=O)=O)cc2Cl)cc(-c2ccccn2)n1 = class 1
Cn1ccc(NC(=O)c2cc(Oc3ccc(C(=O)N4CCC4)c(F)c3)c3c(c2)OC(C)(C)C3)n1 = class 0
Cc1nc(N2CCN(C(=O)c3ccco3)CC2)c2c3c(sc2n1)CCCC3 = class 0
CN1CC2CN(c3ccc4oc5ccccc5c(=O)c4c3)CC2C1 (centres undefined) = class 1
Clc1cccc(COc2cncc(N3CCNCC3)n2)c1 = class 0
O[C@@](Cc1ncc(CC2(C(F)(F)F)CC2)[nH]1)(c1ccc(-n2cccn2)cc1)C(F)(F)F = class 1
O=C(NC[C@H](O)CN1CCc2ccccc2C1)c1ccnc(NC2CCC2)c1 = class 1
C/C=C(\C)C(=O)O[C@@H]1[C@@H](C)[C@]2(O)[C@@H]3C=C(C)C(=O)[C@H]3CC(CO)=C[C@H]2C2C(C)(C)[C@@]21OC(=O)C(C)CC (some centres undefined) = class 0

Lab log: compare recorded max response with -10%; is it strictly lower for "CCc1ccccc1OC[C@@H](O)CN[C@H]1CCCc2ccccc21" ?
class 1

Quick check: does CC1CC(=O)C2=C(C1)C1OC1C1(O)C2C(=O)c2cccc(O)c2C1O (centres undefined) have max response under -10%?
class 1

Please check: max response for CC(C)=CCCC1(C)C2CCC1(C)C(O)C2 (centres undefined) , strictly under -10% or not?
class 0

Hello, is max response of the following molecule strictly smaller than -10%? "CC(C)=CCc1cc2c(cc1O)OC[C@H]1c3ccc(O)cc3O[C@@H]21"
class 1
